pIC50: −log10 of the molar value.
These records show pIC50 for UniProtKB P56817.
Sequence (P56817 22-460): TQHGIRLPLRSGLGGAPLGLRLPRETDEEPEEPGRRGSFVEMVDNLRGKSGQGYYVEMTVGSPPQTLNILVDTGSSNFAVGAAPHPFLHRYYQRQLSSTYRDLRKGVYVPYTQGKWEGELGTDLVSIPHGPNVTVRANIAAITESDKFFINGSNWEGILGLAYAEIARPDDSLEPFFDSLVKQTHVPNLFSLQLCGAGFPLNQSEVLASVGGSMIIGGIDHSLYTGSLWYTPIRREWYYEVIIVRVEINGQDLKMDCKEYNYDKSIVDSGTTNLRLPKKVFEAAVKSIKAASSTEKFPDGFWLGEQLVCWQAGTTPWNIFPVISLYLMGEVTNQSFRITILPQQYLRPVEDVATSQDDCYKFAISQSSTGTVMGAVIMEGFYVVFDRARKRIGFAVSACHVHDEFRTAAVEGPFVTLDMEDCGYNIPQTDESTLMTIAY
measuredParameter: pIC50

>>> numericvalue("NC1=NC(c2ccncc2)(c2cccc(-c3cncc(F)c3)c2)C2=NCC(F)(F)CN12 (centres unmarked) [Example 71, acetate]")
6.92
>>> numericvalue("NC1=NC(c2ccncc2)(c2cccc(-c3ccc(F)c(Cl)c3)c2)C2=NCCCN12 (centres unmarked)")
7.00

(A) COc1cc(Cl)cc(-c2cccc(C3(c4ccncc4)N=C(N)N4CCCN=C43)c2)c1 (centres unmarked)
(B) NC1=NC(c2ccncc2)(c2cccc(-c3cccc(Cl)c3Cl)c2)C2=NCCCN12 (centres unmarked)
(C) NC1=NC(c2ccncc2)(c2cccc(-c3cc(Cl)cc(Cl)c3)c2)C2=NCCCN12 (centres unmarked)
(D) NC1=NC(c2cccc(-c3cccnc3F)c2)(c2ccncc2F)C2=NCC(F)(F)CN12 (centres unmarked)
Order the entries by their reported pIC50, beginning at the minimum. Could you list the labels in the order requested?
B, D, A, C
